The values you see were collected from patent US3939263A.

Could you please report measured mortality at 100 ppm for the items listed next?
# Tested on: Mexican Bean Beetle
# measurement.description: Mexican Bean Beetle, dipped lima bean leaves
# Assay type: in vivo, Epilachna varivestis Mulsant
# details: Epilachna varivestis; 100 ppm; read-out: % Kill, Mexican Bean Beetle
Numbers only, in %.

Some entries whose results are on file:
>>> observed_result("CCOP(=S)(OCC)SC[S+]([O-])C(C)(C)C (stereo not shown) [reference compound]")
90
>>> observed_result("CCOP(=O)(OCC)SCS(=O)(=O)C(C)(C)C")
90
>>> observed_result("CCOP(=O)(OCC)SC[S+]([O-])C(C)(C)C (stereo not shown)")
100

Exercise: Record request: mortality at 100 ppm value, item `CCOP(=S)(OCC)SCS(=O)(=O)C(C)(C)C`
Key: 100

* * *

Could you please report measured mortality at 100 ppm for the items listed next?
# Tested on: Cotton Boll Weevil
# measurement.description: Soil Systemic Insecticide test on cotton, Cotton Boll Weevil
# Format: in vivo, Anthonomus grandis Boheman
# details: 48 h; 100 ppm in soil; cotton leaves after three weeks; 2 days; read-out: % Kill, Systemic Insecticide, Cotton Boll Weevil
Give bare numbers, in %.

Some entries whose results are on file:
>>> observed_result("CCOP(=O)(OCC)SC[S+]([O-])C(C)(C)C (stereo not shown)")
100
>>> observed_result("CCOP(=S)(OCC)SC[S+]([O-])C(C)(C)C (stereo not shown) [reference compound]")
100
>>> observed_result("CCOP(=O)(OCC)SCS(=O)(=O)C(C)(C)C")
100

Here is the next item to consider.
Exercise: Record request: mortality at 100 ppm value, item `CCOP(=S)(OCC)SCS(=O)(=O)C(C)(C)C`
Key: 90

* * *

# System: Southern Armyworm
# measurement.description: Soil Systemic Insecticide test on corn, Southern Armyworm
# Type: in vivo, Spodoptera eridania Cramer
# details: Spodoptera eridania, 48 h; 100 ppm in soil; corn foliage after three weeks; 2 days; read-out: % Kill, Systemic Insecticide, Southern Armyworm
measurement.label: mortality at 100 ppm (%)
One number for each entry, in %.

>>> observed_result("CCOP(=O)(OCC)SCS(=O)(=O)C(C)(C)C")
100
>>> observed_result("CCOP(=S)(OCC)SC[S+]([O-])C(C)(C)C (stereo not shown) [reference compound]")
100

For every item below, please supply its mortality at 100 ppm.
1. CCOP(=O)(OCC)SC[S+]([O-])C(C)(C)C (stereo not shown)
2. CCOP(=S)(OCC)SCS(=O)(=O)C(C)(C)C

Key:
1: 100; 2: 0

* * *

# measurement.description: Mammalian toxicity, LD50 in mice
# Assay type: in vivo, male albino mice of the CFI strain
# details: mouse, in vivo; male albino mice, corn oil, 0.5 ml./kg.
Could you please report measured LD50 for the items listed next?
Give bare numbers, in mg/kg.

>>> observed_result("CCOP(=O)(OCC)SC[S+]([O-])C(C)(C)C (stereo not shown)")
1.1
>>> observed_result("CCOP(=S)(OCC)SC[S+]([O-])C(C)(C)C (stereo not shown) [reference compound]")
3.4

For every item below, please supply its LD50.
1. CCOP(=O)(OCC)SCS(=O)(=O)C(C)(C)C
2. CCOP(=S)(OCC)SCS(=O)(=O)C(C)(C)C

Key:
[3.4, 14]

* * *

# Test system: Cotton Boll Weevil
# measurement.description: Cotton Boll Weevil, treated cotton cotyledon, 2-day mortality
# Format: in vivo, Anthonomus grandis Boheman
# details: 48 h, 2 days, read-out: % Kill, Cotton Boll Weevil
Could you please report measured mortality at 100 ppm for the items listed next?
Answers are plain numbers, in %.

Some entries whose results are on file:
>>> observed_result("CCOP(=O)(OCC)SC[S+]([O-])C(C)(C)C (stereo not shown)")
90
>>> observed_result("CCOP(=S)(OCC)SCS(=O)(=O)C(C)(C)C")
90
>>> observed_result("CCOP(=S)(OCC)SC[S+]([O-])C(C)(C)C (stereo not shown) [reference compound]")
100

Here is the next item to consider.
Exercise: Record request: mortality at 100 ppm value, item `CCOP(=O)(OCC)SCS(=O)(=O)C(C)(C)C`
Key: 90
